# IC50 listing for each entry below
System: KB (human mouth epidermal carcinoma) cell line
protocol.text: MTT cytotoxicity assay, KB cells
protocol.conditions: Homo sapiens, KB, 72 h, read-out: IC50, KB
Please respond with the number in µM and leave the unit unwritten.

Completed entries (count: 5):
O=C1OCC2=C1C(c1ccc(Br)o1)C1=C(N2)C(=O)c2ccccc2C1=O (centres unmarked) [Compound 13d] | 2.81
Cc1c(C2C3=C(COC3=O)NC3=C2C(=O)c2ccccc2C3=O)cnn1C (centres unmarked) [Compound 13i] | 10.7
O=C1OCC2=C1C(c1ccn[nH]1)C1=C(N2)C(=O)c2ccccc2C1=O (centres unmarked) [Compound 13j] | 6
O=C1OCC2=C1C(c1ccoc1)C1=C(N2)C(=O)c2ccccc2C1=O (centres unmarked) [Compound 13b] | 10.1
O=C1OCC2=C1C(c1coc3ccccc13)C1=C(N2)C(=O)c2ccccc2C1=O (centres unmarked) [Compound 13f] | 1.1

Send back KB (human mouth epidermal carcinoma) cell line IC50 of O=C1OCC2=C1C(c1cc3ccccc3s1)C1=C(N2)C(=O)c2ccccc2C1=O (centres unmarked) [Compound 13g] only.
9.94

Send back KB (human mouth epidermal carcinoma) cell line IC50 of COc1ncc(C(F)(F)F)cc1C1C2=C(COC2=O)NC2=C1C(=O)c1ccccc1C2=O (centres unmarked) [Compound 13m] only.
4.63

Send back KB (human mouth epidermal carcinoma) cell line IC50 of O=C1OCC2=C1C(c1ncccc1F)C1=C(N2)C(=O)c2ccccc2C1=O (centres unmarked) [Compound 13l] only.
4.69
